Biological target: RNA-binding protein pos-1 (Caenorhabditis elegans)
Sequence (G5EF15 whole entry, the tested form may be a part): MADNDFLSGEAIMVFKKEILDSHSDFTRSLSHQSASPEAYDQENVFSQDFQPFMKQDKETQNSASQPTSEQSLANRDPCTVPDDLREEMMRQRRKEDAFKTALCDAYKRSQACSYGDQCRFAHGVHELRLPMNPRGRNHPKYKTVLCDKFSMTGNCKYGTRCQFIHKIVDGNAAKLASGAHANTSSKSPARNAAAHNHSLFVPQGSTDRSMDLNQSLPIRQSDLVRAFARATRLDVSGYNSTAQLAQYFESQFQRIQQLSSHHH
Experiment: disruptors of C. elegans POS-1 RNA interaction – biochemical, fluorescence polarization, dose response (AID 1964);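 further: purified POS-1 fused to maltose binding protein made in E. coli; potency of compounds blocking POS-1 binding to fluorescent RNA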
Activity calls are given as the source filed them. No stated cut-off is given here; in the data, actives have a measured EC50 and inactives only a lower limit.
PARAMETER: EC50

Examples with their reported EC50 follow.
- MOLECULE: "N#C/C(=C\\N1CCN(Cc2ccc3c(c2)OCO3)CC1)c1nc2ccccc2s1"
  MEASUREMENT_TARGET: "RNA-binding protein pos-1 (Caenorhabditis elegans)"
  READOUT_VALUE: "> 300 µM (not active)"
- MOLECULE: "Cc1sc(-n2c(C)cc(C=C3C(=O)NC(=O)NC3=O)c2C)c(C#N)c1C"
  MEASUREMENT_TARGET: "RNA-binding protein pos-1 (Caenorhabditis elegans)"
  READOUT_VALUE: "> 300 µM (not active)"
- MOLECULE: "O=c1c(O)cccc2cc(O)c(O)c(O)c12"
  MEASUREMENT_TARGET: "RNA-binding protein pos-1 (Caenorhabditis elegans)"
  READOUT_VALUE: "6.57 µM (active)"
- MOLECULE: "COc1cc(C2C(C#N)=C(N)OC3=C2C(=O)CC(C)(C)C3)cc2c1OCO2 (stereo unspecified)"
  MEASUREMENT_TARGET: "RNA-binding protein pos-1 (Caenorhabditis elegans)"
  READOUT_VALUE: "> 300 µM (not active)"
- MOLECULE: "N#Cc1c(N)nc(SCc2ccccc2)c(C#N)c1-c1ccco1"
  MEASUREMENT_TARGET: "RNA-binding protein pos-1 (Caenorhabditis elegans)"
  READOUT_VALUE: "> 300 µM (not active)"

Query: Value wanted: EC50 (RNA-binding protein pos-1 (Caenorhabditis elegans)) of entry N#C/C(=N\Nc1ccc(Cl)cc1)C(=O)c1ccsc1
Reply: 81.6 µM (active)

Query: Reported EC50 for RNA-binding protein pos-1 (Caenorhabditis elegans), given Oc1ccc(N=Nc2ccccc2-c2nn[nH]n2)c(O)c1 ?
Reply: > 300 µM (not active)

These entries and their values trace back to ChEMBL document CHEMBL1201862.
